Just for reference, the supplement of paper PMC10567573 is where these values come from.

So I've got a bunch of sequences here, and I need their protein stability index values.
Test: protein stability index of a GFP-peptide fusion (GPS, HEK-293T) (PSI 1-6); higher = more stable;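 also: 24-mer peptide tiles fused after GFP, lentivirally expressed, FACS-sorted into six equal bins by GFP/DsRed ratio, decoded by Illumina sequencing, PSI is the read-weighted mean bin number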
Conditions: treatment: MLN4924 1 uM, 8 h; c terminus: a fixed tail appended
# answer = number (no unit)

The measured protein stability index associated with PGPGSGPGSGPGHGSGSHPGPASG [SPAG8] reads 4.97

The measured protein stability index associated with PTHLSNGQMSTPETPQPSPPGGSG [HNF4A] reads 4.98

The measured protein stability index associated with AGLEDEDVIIEVNGVNVLDEPYEK [PDZK1] reads 5

---

So I've got a bunch of sequences here, and I need their protein stability index values.
Test: protein stability index of a GFP-peptide fusion (GPS, HEK-293T) (PSI 1-6); higher = more stable
Conditions: treatment: MLN4924 1 uM, 8 h; c terminus: a fixed tail appended
# answer = number (no unit)

The measured protein stability index associated with KLLPHQPRIVEMKKGSNGYGFYLR [PDZK1] reads 2.47

The measured protein stability index associated with GWGDCVWLPYLYTLQGLYLVYHPV [DHCR7] reads 3.25

The measured protein stability index associated with MLGFRPYRFYFYMWKFVSPLCMAV [SLC6A17] reads 2.29

The measured protein stability index associated with VLEMFDLRMMVENIMNKEAFMNQE [RHOBTB1] reads 2.33

The measured protein stability index associated with KGKAGRVDLVDESGYVSGYKHAGT [TPPP] reads 4.57

The measured protein stability index associated with RHAEQQALRLEVRAGPDSAGIALY [CARM1] reads 2.81

---

Assay: protein stability index of a GFP-peptide fusion (GPS, HEK-293T) (PSI 1-6); higher = more stable
Details: treatment: DMSO; c terminus: a fixed tail appended
So I've got a bunch of sequences here, and I need their protein stability index values.
# answer = number (no unit)

The measured protein stability index associated with HVYIGSAGLDWQSLGQMKELGVIF [PLD5] reads 2.49

The measured protein stability index associated with NWRRKHEEFIATIRAAKGLDQALK [ZC2HC1A] reads 2.71

The measured protein stability index associated with WASRREAFAQRPSSAPDLMCLSPD [CDC25B] reads 3.85

The measured protein stability index associated with CRREAFRRLGNGVSDDLSSEEDGE [PHTF1] reads 4.94

---

So I've got a bunch of sequences here, and I need their protein stability index values.
Test: protein stability index of a GFP-peptide fusion (GPS, HEK-293T) (PSI 1-6); higher = more stable
Settings: treatment: DMSO; c terminus: native
# answer = number (no unit)

The measured protein stability index associated with EELLYDYGDRSKASIEAHPWLKH [KMT5A] reads 4.9

The measured protein stability index associated with KEMARKVIEHCSNFKEENMDTSR [ZER1] reads 3.77

The measured protein stability index associated with TAHASAQSLAGGSRRTKEEELQC [TPD52L1] reads 4.99

The measured protein stability index associated with VATWAIFVHRVGQPSIGGKLSPL [CTBP1-DT] reads 3.12

The measured protein stability index associated with ISLMYGGSKRKSSFFSSPPYFED [SLA] reads 2.22

The measured protein stability index associated with EDTKPKPTKRKRKGSSAVGSDSD [INTS3] reads 5.45

The measured protein stability index associated with KAVQYEEKNPCRTLCCFCCPCLK [STX11] reads 3.59

The measured protein stability index associated with PALKIYEYHVKPLQTKHLKNNSS [SAMD13] reads 3

The measured protein stability index associated with ESLSAIEAELEKVAHQLQALRRG [CHGA] reads 3.19

The measured protein stability index associated with RQAVAWLVAMHKAAKLLYESRDQ [ZFYVE21] reads 2.95
